Target: PRS (prolyl-tRNA synthetase) protein, PRS portion of EPRS (Homo sapiens (Human), UniProt P07814)
Sequence (P07814 1007-1512): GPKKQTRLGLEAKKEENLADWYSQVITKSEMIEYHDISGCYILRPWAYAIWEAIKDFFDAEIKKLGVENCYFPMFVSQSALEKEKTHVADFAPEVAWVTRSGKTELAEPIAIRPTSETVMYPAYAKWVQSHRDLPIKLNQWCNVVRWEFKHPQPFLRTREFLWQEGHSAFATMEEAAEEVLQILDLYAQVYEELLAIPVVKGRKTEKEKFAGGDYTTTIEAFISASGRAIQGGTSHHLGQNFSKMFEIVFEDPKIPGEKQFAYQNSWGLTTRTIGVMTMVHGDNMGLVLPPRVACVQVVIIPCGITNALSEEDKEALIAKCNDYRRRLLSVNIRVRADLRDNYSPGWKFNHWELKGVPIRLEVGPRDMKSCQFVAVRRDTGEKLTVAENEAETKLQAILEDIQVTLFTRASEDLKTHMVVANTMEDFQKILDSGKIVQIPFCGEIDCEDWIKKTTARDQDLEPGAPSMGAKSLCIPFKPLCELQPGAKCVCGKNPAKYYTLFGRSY
pIC50: −log10 of the molar value.
Assignment: determine reported pIC50 for the given molecules.

Task: Field request: pIC50 | item: O[C@H]1CCCN[C@@H]1CCCn1cnc2cc(Br)c(Br)cc21 [Example 54]
Result: ≤ 6.30

Task: Field request: pIC50 | item: O[C@H]1CCCN[C@@H]1CCCn1cnc2cccc(N3CCCC3)c21 [Example 98]
Result: 6.30 to 7.00

Task: Field request: pIC50 | item: O[C@H]1CCCN[C@@H]1/C=C/Cn1cnc2c(Cl)c(-c3cccc(Cl)c3)cnc21 [Example 185]
Result: ≤ 6.30

Task: Field request: pIC50 | item: OCc1nc2ccccc2n1CCC[C@H]1NCCC[C@@H]1O [Example 145]
Result: ≤ 6.30

Task: Field request: pIC50 | item: O[C@H]1CCCN[C@@H]1/C=C/Cn1ccc2ccc(Cl)cc21 [Example 197]
Result: ≤ 6.30

Task: Field request: pIC50 | item: O[C@H]1CCCN[C@@H]1C#CCn1cnc2cc(Br)c(Br)cc21 [Example 228]
Result: ≤ 6.30

Task: Field request: pIC50 | item: O[C@H]1CCCN[C@@H]1CCCn1cnc2cccc(Cl)c21 [Example 12]
Result: 6.30 to 7.00

Task: Field request: pIC50 | item: O[C@H]1CCCN[C@@H]1CCCn1cnc2cc(Br)c(F)cc21 [Example 35]
Result: 6.30 to 7.00

Task: Field request: pIC50 | item: Cc1c(Cl)cnc2c1ncn2C/C=C/[C@H]1NCCC[C@@H]1O [Example 188]
Result: ≤ 6.30

Task: Field request: pIC50 | item: O[C@H]1CCCN[C@@H]1CCCn1cnc2c(Cl)cccc21 [Example 10]
Result: 6.30 to 7.00

Task: Field request: pIC50 | item: O[C@H]1CCCN[C@@H]1CCCn1cnc2cc(C(F)(F)F)cc(-c3cccc(F)c3)c21 [Example 84]
Result: ≤ 6.30

Task: Field request: pIC50 | item: Cc1c(F)ccc2c1ncn2CCC[C@H]1NCCC[C@@H]1O [Example 64]
Result: ≥ 7.00

Task: Field request: pIC50 | item: Cc1ccc2c(ncn2C/C=C/[C@H]2NCCC[C@@H]2O)c1C [Example 172]
Result: ≤ 6.30

Task: Field request: pIC50 | item: O[C@H]1CCCN[C@@H]1CCCn1cnc2cc(C(F)(F)F)cc(-c3cn[nH]c3)c21 [Example 82]
Result: ≤ 6.30

Task: Field request: pIC50 | item: O[C@H]1CCCN[C@@H]1CCCn1cnc2c(F)cc(F)cc21 [Example 57]
Result: ≤ 6.30

Task: Field request: pIC50 | item: O[C@H]1CCCN[C@@H]1CCCn1cnc2ccc(C(F)(F)F)cc21 [Example 15]
Result: 6.30 to 7.00

Task: Field request: pIC50 | item: O[C@H]1CCCN[C@@H]1/C=C/CN1CCc2cc(Cl)ccc21 [Example 195]
Result: ≤ 6.30

Task: Field request: pIC50 | item: O[C@H]1CCCN[C@@H]1CCCn1cnc2cc(F)ccc21 [Example 7]
Result: 6.30 to 7.00

Task: Field request: pIC50 | item: O[C@H]1CCCN[C@@H]1/C=C/Cn1ccc2cccnc21 [Example 196]
Result: ≤ 6.30
